# system-name: T1, Fc tagged mouse TNFR1 (Sino Biological) (mouse, UniProt P25118 22-212, limits assumed)
# T1 construct: Bought reagent; also called mTNFR1; mTNFR1-Fc; not shown: Fc tag of the bought protein
# T1 sequence (looked up): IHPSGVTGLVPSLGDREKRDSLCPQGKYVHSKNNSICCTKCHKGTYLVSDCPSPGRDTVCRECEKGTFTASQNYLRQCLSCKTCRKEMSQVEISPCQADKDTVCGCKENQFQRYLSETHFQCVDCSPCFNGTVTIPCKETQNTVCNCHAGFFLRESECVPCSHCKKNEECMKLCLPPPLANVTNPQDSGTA
# assay-overview: SPR, Biacore T200 single cycle kinetics, receptor-Fc captured on Protein A chip, TNF 1.67-15 nM
# Protocol: Single cycle kinetic analysis was performed using a Biacore T200 (serial no. 1909913) running Biacore T200 Evaluation Software V2.0.1 (Uppsala, Sweden). All experiments were run at 25° C. with HBS-P+ running buffer (pH 7.4) (GE Healthcare, Little Chalfont, UK). […]
Assignment: determine reported Kd for the given binders.
Numeric only. Scale: nM

[Q] Recorded Kd for TNF mutein B5 (ligand, Human TNF mutein, TGTYVD at positions 84-89; not shown: C-terminal FLAG tag and His6 tag from vector pANT65) VHSSSRTPSDKPVAHVVANPQAEGQLQWLNRRANALLANGVELRDNQLVVPSEGLYLIYSQVLFKGQGCPSTHVLLTHTISRITGTYVDKVNLLSAIKSPCQRETPEGAEAKPWYEPIYLGGVFQLEKGDRLSAEINRPDYLDFAESGQVYFGIIAL , please?
[A] 0.128

[Q] Give its Kd value. Item: TNF mutein F3 (ligand, Human TNF mutein, TTTYRL at positions 84-89; not shown: C-terminal FLAG tag and His6 tag from vector pANT65) VRSSSRTPSDKPVAHVVANPQAEGQLQWLNRRANALLANGVELRDNQLVVPSEGLYLIYSQVLFKGQGCPSTHVLLTHTISRITTTYRLKVNLLSAIKSPCQRETPEGAEAKPWYEPIYLGGVFQLEKGDRLSAEINRPDYLDFAESGQVYFGIVAL
[A] 7.35

[Q] Reported Kd, binder TNF mutein B6 (ligand, Human TNF mutein, TGTYSY at positions 84-89; not shown: C-terminal FLAG tag and His6 tag from vector pANT65) VRSSSRTPSDKPVAHVVANPQAEGQLQWLNRRANALLANGVELRDNQLVVPSEGLYLIYSQVLFKGQGCPSTHVLLTHTISRITGTYSYKVNLLSAIKSPCQRETPEGAEAKPWYEPIYLGGVFQLEKGDRLSAEINRPDYLDFAESGQVYFGIIAL : ____
[A] 0.304

[Q] Report Kd for TNF mutein C8 (ligand, Human TNF mutein, SQTHDG at positions 84-89; not shown: C-terminal FLAG tag and His6 tag from vector pANT65) VRSSSRTPSDKPVAHVVANPQAEGQLQWLNRRANALLANGVELRDNQLVVPSEGLYLIYSQVLFKGQGCPSTHVLLTHTISRISQTHDGKVNLLSAIKSPCQRETPEGAEAKPWYEPIYLGGVFQLEKGDRLSAEINRPDYLDFAESGQVYFGIIAL please.
[A] 0.363

[Q] Kd lookup needed for TNF variant C9 (ligand, Human TNF variant from Library 2, AVTYQT at positions 84-89; not shown: C-terminal FLAG tag and His6 tag from vector pANT65) VRSSSRTPSDKPVAHVVANPQAEGQLQWINGRANALLANGVELRDNQLVVPSEGLYLIYSQVLFKGQGCPSTHVLLTHTISRIAVTYQTKVNLLSAIKSPCQRETPEGAEAKPWYEPIYLGGVFQLEKGDRLSAEINRPDYLDDADSGQVYFGIIAL , thanks.
[A] 0.607

[Q] Reported Kd, binder TNF mutein B4 (ligand, Human TNF mutein, SESHDG at positions 84-89; not shown: C-terminal FLAG tag and His6 tag from vector pANT65) VRSSSHTPSDKPVAHVVANPQAEGQLQWLNRRANALLANGVELRDNQLVVPSEGLYLIYSQVLFKGQGCPSTHVLLTHTISRISESHDGKVNLLSAIKSPCQRETPEGAEAKPWYEPIYLGGVFQLEKGDRLSAEINRPDYLDFAESGQVYFGIIAL : ____
[A] 0.132

[Q] Which Kd value belongs to TNF mutein G4 (ligand, Human TNF mutein, SSTYNP at positions 84-89; also called mutTNF G4; mutTNF; not shown: C-terminal FLAG tag and His6 tag from vector pANT65) VRSSSRTPSDKPVAHVVANPQAEGQLQWLNRRANALLANGVELRDNQLVVPSEGLYLIYSQVLFKGQGCPSTHVLLTHTISRISSTYNPKVNLLSAIKSPCQRETPEGAEAKPWYEPIYLGGVFQLEKGDRLSAEINRPDYLDFAESGQVYFGIIAL ?
[A] 0.0407
